All values here come from patent EP4775571A1.

# assay_protocol: Pharmacokinetic test in mice
# Format: in vivo, C57 mice
# test_parameters: mouse, iv; mice, i.v. (1 mg/kg), plasma
# Protocol: 2.1 Experimental animals: Male C57 mice, 20-25 g, 6 mice/compound, purchased from Chengdu Ddossy Experimental Animals Co., Ltd. 2.2 Experimental design: On the day of the experiment, the C57 mice were randomly grouped according to their body weights. The animals were fasted with water available for 12-14 h one day before the administration, and were fed 4 h after the administration. Table 2. Administration information […]
So basically: is clearance under 20 mL/min/kg? Then Met. Not under? Then Not met.

{"compound": "Cc1nc(-c2nnn(C)c2COC(=O)N(C)C2CC(=C(F)F)C2)ccc1O[C@H]1CCC[C@H](C(=O)O)C1 (some centres unmarked)", "assigned_category": "Met"}
{"compound": "C=C1CC(N(C)C(=O)OCc2c(-c3ccc(O[C@H]4CCC[C@H](C(=O)O)C4)c(C)n3)nnn2C)C1", "assigned_category": "Not met"}
{"compound": "Cc1nc(-c2nnn(C)c2CNC(=O)OC2CC(=C(F)F)C2)ccc1O[C@H]1CCC[C@H](C(=O)O)C1 (some centres unmarked)", "assigned_category": "Met"}
{"compound": "C=C1CC(OC(=O)NCc2c(-c3ccc(O[C@H]4CCC[C@H](C(=O)O)C4)c(C)n3)nnn2C)C1", "assigned_category": "Met"}
{"compound": "Cc1nc(-c2nnn(C)c2CNC(=O)OC2CC(=C(F)F)C2)ccc1OCCC1(C(=O)O)CC1 (centres unmarked)", "assigned_category": "Met"}
